Hello, the source for this data is patent US8133847B2, in case you need it.

# System: Amaranthus retroflexus (AMARE)
# testProtocol: Example B1 herbicidal action, post-emergence, 96-cell seed trays, climatic chamber
# Type: in vivo
# conditionInfo: Application post-emergence, 1000 mg/l spray equivalent to 1000 g/ha, evaluated after 9 days
measuredProperty: damage to plant, Amaranthus retroflexus (AMARE)

>>> result("Cc1ccc(Cl)c(-c2c(OC(=O)C(C)C)c3nccnc3n(C)c2=O)c1F")
2

Required: damage to plant, Amaranthus retroflexus (AMARE), one value per compound below.
1. CC(C)(C)C(=O)Oc1c(-c2ccccc2OC(F)(F)F)c(=O)n(CC2CC2)c2nccnc12
2. C/C=C/C(=O)Oc1c(-c2c(Cl)cccc2Cl)c(=O)n(C)c2nccnc12
3. CCn1c(=O)c(-c2c(F)ccc(F)c2F)c(OC(=O)C(C)(C)C)c2nccnc21
4. CCn1c(=O)c(-c2c(F)ccc(F)c2Cl)c(OC(=O)C(C)(C)C)c2nccnc21
5. CCn1c(=O)c(-c2cc(C(F)(F)F)cc(C(F)(F)F)c2)c(OC(C)=O)c2nccnc21
6. C=CCn1c(=O)c(-c2cccc(C(F)(F)F)c2Cl)c(OC(=O)C(C)C)c2nccnc21
7. Cc1ccccc1-c1c(O)c2nccnc2[nH]c1=O

Output:
1. 4
2. 2
3. 6
4. 8
5. 2
6. 2
7. 0

Required: damage to plant, Amaranthus retroflexus (AMARE), one value per compound below.
1. O=c1[nH]c2nccnc2c(O)c1-c1c(Cl)ccc(Cl)c1Cl
2. CCn1c(=O)c(-c2c(Cl)cccc2Cl)c(OC(=O)C(C)(C)C)c2nccnc21
3. CCC(CC)C(=O)Oc1c(-c2c(F)ccc(F)c2Cl)c(=O)n(C)c2nccnc12
4. Cn1c(=O)c(-c2c(F)ccc(F)c2Cl)c(OC(=O)c2ccccc2)c2nccnc21
5. CC(C)n1c(=O)c(-c2c(F)ccc(F)c2Cl)c(OC(=O)C(C)(C)C)c2nccnc21
6. CCn1c(=O)c(-c2cc(C(F)(F)F)ccc2Cl)c(OC(=O)C(C)(C)C)c2nccnc21
7. COc1cccc(C(=O)Oc2c(-c3c(F)ccc(F)c3Cl)c(=O)n(C)c3nccnc23)c1

Output:
7
2
5
6
0
6
5

Required: damage to plant, Amaranthus retroflexus (AMARE), one value per compound below.
1. CCn1c(=O)c(-c2c(F)ccc(F)c2Cl)c(OC(C)=O)c2nccnc21
2. CC(C)C(=O)Oc1c(-c2c(Cl)cccc2C(F)(F)F)c(=O)n(C)c2nccnc12
3. O=c1[nH]c2nccnc2c(O)c1-c1c(Cl)cccc1Cl

Output:
[8, 7, 3]

Required: damage to plant, Amaranthus retroflexus (AMARE), one value per compound below.
1. O=c1[nH]c2ncc(Br)nc2c(O)c1-c1c(Cl)cccc1Cl
2. CCCC(=O)Oc1c(-c2c(Cl)cccc2Cl)c(=O)n(C)c2nccnc12
3. COCCn1c(=O)c(-c2ccc(Cl)cc2Cl)c(OC(C)=O)c2nccnc21
4. CCCC(CCC)C(=O)Oc1c(-c2c(F)ccc(F)c2Cl)c(=O)n(C)c2nccnc12

Output:
[0, 5, 0, 5]

Required: damage to plant, Amaranthus retroflexus (AMARE), one value per compound below.
1. CC(C)(C)C(=O)Oc1c(-c2c(Cl)cc(C(F)(F)F)cc2Cl)c(=O)[nH]c2nccnc12
2. CC(C)(C)C(=O)Oc1c(-c2c(F)ccc(F)c2Cl)c(=O)n(CC2CC2)c2nccnc12
3. CCn1c(=O)c(-c2cc(C(F)(F)F)ccc2Cl)c(OC(=O)C(C)C)c2nccnc21
4. CCn1c(=O)c(-c2ccc(Cl)cc2Cl)c(OC(=O)C(C)(C)C)c2nccnc21
5. Cn1c(=O)c(-c2c(Cl)cccc2Cl)c(OC(=O)C(C)(C)C)c2nccnc21
6. CCn1c(=O)c(-c2ccccc2OC(F)(F)F)c(OC(=O)C(C)(C)C)c2nccnc21

Output:
[2, 3, 7, 7, 5, 0]

Required: damage to plant, Amaranthus retroflexus (AMARE), one value per compound below.
1. Cn1c(=O)c(-c2c(F)ccc(F)c2Cl)c(O)c2c1ncc[n+]2[O-]
2. CCn1c(=O)c(-c2ccccc2OC(F)(F)F)c(O)c2nccnc21
3. CCn1c(=O)c(-c2cccc(Cl)c2)c(OC(C)=O)c2nccnc21
4. CC(C)C(=O)Oc1c(-c2c(F)ccc(F)c2Cl)c(=O)n(C)c2ncc[n+]([O-])c12
5. Cn1c(=O)c(-c2ccc(Cl)cc2Cl)c(O)c2nccnc21

Output:
1. 5
2. 3
3. 0
4. 0
5. 0

###

What damage to plant, Nasturtium officinale (NAAOF) was measured for each of the following?
# System: Nasturtium officinale (NAAOF)
# testProtocol: Example B1 herbicidal action, post-emergence, 96-cell seed trays, climatic chamber
# Format: in vivo
# Set-up: scale not given here
# conditionInfo: Application post-emergence, 1000 mg/l spray equivalent to 1000 g/ha, evaluated after 9 days (100=total damage to plant, 0=no damage to plant)
One number for each entry.

>>> numericreadout("CC(=O)Oc1c(-c2ccccc2OC(F)(F)F)c(=O)[nH]c2nccnc12")
3
>>> numericreadout("O=c1[nH]c2nccnc2c(O)c1-c1cc(Cl)ccc1C(F)(F)F")
5
>>> numericreadout("CC#CCOC(=O)Oc1c(-c2c(F)ccc(F)c2Cl)c(=O)n(C)c2nccnc12")
6

Next compound, please.
Task: Which damage to plant, Nasturtium officinale (NAAOF) value belongs to Cn1c(=O)c(-c2c(Cl)cccc2Cl)c(OC(=O)C(C)(C)C)c2nccnc21 ?
Output: 7

###

# Tested on: Amaranthus retroflexus (AMARE)
# testProtocol: Example B1 herbicidal action, post-emergence, 96-cell seed trays, climatic chamber
# Assay type: in vivo
# conditionInfo: Application post-emergence, 1000 mg/l spray equivalent to 1000 g/ha, evaluated after 9 days
# Procedure: Seeds of a variety of test species were sown in sterilised standard soil in seed trays each having 96 cells. […] After 9 days until the test was evaluated (100=total damage to plant, 0=no damage to plant)
Mark criterion met for reported damage to plant, Amaranthus retroflexus (AMARE) of 4 or greater; mark criterion not met for anything smaller.

Past entries and their recorded results:
>>> assignedlabel("CCC(C(=O)Oc1c(-c2c(F)ccc(F)c2Cl)c(=O)n(C)c2nccnc12)c1ccccc1 (centres unmarked)")
"criterion met"
>>> assignedlabel("CC(C)Cn1c(=O)c(-c2ccccc2OC(F)(F)F)c(OC(=O)C(C)(C)C)c2nccnc21")
"criterion not met"
>>> assignedlabel("CC(C)C(=O)Oc1c(-c2cc(Cl)cc(Cl)c2Cl)c(=O)n(C)c2nccnc12")
"criterion not met"
>>> assignedlabel("C=CCn1c(=O)c(-c2ccccc2OC(F)(F)F)c(OC(=O)C(C)(C)C)c2nccnc21")
"criterion not met"
>>> assignedlabel("CC(C)=CC(=O)Oc1c(-c2c(F)ccc(F)c2Cl)c(=O)n(C)c2nccnc12")
"criterion not met"

Task: Could you tell me if the measured damage to plant, Amaranthus retroflexus (AMARE) of Cn1c(=O)c(-c2c(F)ccc(F)c2Cl)c(OC(=O)c2ccco2)c2nccnc21 reaches 4 or more?
Output: criterion met

Task: Could you tell me if the measured damage to plant, Amaranthus retroflexus (AMARE) of CC(C)C(=O)Oc1c(-c2cccc(C(F)(F)F)c2Cl)c(=O)n(CC2CC2)c2nccnc12 reaches 4 or more?
Output: criterion met

Task: Could you tell me if the measured damage to plant, Amaranthus retroflexus (AMARE) of O=c1[nH]c2nccnc2c(O)c1-c1cc(Cl)cc(Cl)c1Cl reaches 4 or more?
Output: criterion not met

###

# Tested on: Nasturtium officinale (NAAOF)
# testProtocol: Example B1 herbicidal action, post-emergence, 96-cell seed trays, climatic chamber
# Assay type: in vivo
# Set-up: scale not given here
# conditionInfo: Application post-emergence, 1000 mg/l spray equivalent to 1000 g/ha, evaluated after 9 days (100=total damage to plant, 0=no damage to plant)
measuredProperty: damage to plant, Nasturtium officinale (NAAOF)
Give bare numbers.

>>> numericreadout("CCn1c(=O)c(-c2c(F)ccc(F)c2Cl)c(O)c2nccnc21 [Compound D2]")
8
>>> numericreadout("CC(CC(=O)Oc1c(-c2c(F)ccc(F)c2Cl)c(=O)n(C)c2nccnc12)CC(C)(C)C (centres unmarked)")
2
>>> numericreadout("CCn1c(=O)c(-c2c(C)cc(C)cc2C)c(OC(C)=O)c2nccnc21")
8
>>> numericreadout("CCn1c(=O)c(-c2ccc(Cl)cc2Cl)c(OC(C)=O)c2nccnc21")
8
>>> numericreadout("O=c1[nH]c2nccnc2c(O)c1-c1ccccc1F")
2
>>> numericreadout("Cn1c(=O)c(-c2ccccc2OC(F)(F)F)c(OC(=O)C(C)(C)C)c2nccnc21")
2

Required: damage to plant, Nasturtium officinale (NAAOF), one value per compound below.
1. CCn1c(=O)c(-c2c(F)ccc(F)c2F)c(OC(=O)C(C)(C)C)c2nccnc21
2. CC(C)(C)C(=O)Oc1c(-c2ccccc2OC(F)(F)F)c(=O)[nH]c2nccnc12

Output:
1. 7
2. 0
